# Test system: B2M
# EXPERIMENTAL PROTOCOL: Targeted PCR and NGS (amplicon sequencing) of on-target and off-target sites in genome-edited LSCs
# Assay type: cell-based, human
# RUN CONDITIONS: of the potential off-target loci sequenced
READOUT NAME: Number of sites positive for off-target activity in LSCs

MOLECULE	RESULT
4-CR004366: gRNA targeting human B2M; targeting domain SEQ ID NO: 111; sgRNA SEQ ID NO: 162; from Dharmacon (nucleic acid, listed as RNA, chemistry not given here, gRNA targeting human B2M; from Dharmacon) guide: CAGUAAGUCAACUUCAAUGUGUUUUAGAGCUAGAAAUAGCAAGUUAAAAUAAGGCUAGUCCGUUAUCAACUUGAAAAAGUGGCACCGAGUCGGUGCUUUU	0 of 88
